# Tested on: RXF 393
# assay_remarks: NCI tumour cell line growth inhibition, 48 h
Activity calls are given as the source filed them. Rule as the data show it: active = GI50 up to about 1.1 µM and inactive = higher.
observation_type: GI50

Ask: Return reported GI50 for target or system RXF 393, item NC(Cn1ccc(=O)c(O)c1)C(=O)O (stereo not given) [MIMOSINE] .
Result: > 100 µM (inactive)

Ask: Report GI50 from RXF 393 testing of COc1c(O)c(O)c2c(c1O)C(=O)c1cc(C)cc(O)c1C2=O
Result: > 70.8 µM (inactive)

Ask: Param request: GI50 | system RXF 393 | item COC(=O)[C@@H]1C[C@H](c2ccc(OC)c(OC)c2)OC1=O.COC(=O)[C@H]1C[C@H](c2ccc(OC)c(OC)c2)OC1=O
Result: > 100 µM (inactive)

Ask: Quote RXF 393 GI50 for entry CNC(=O)N(CCC#N)CCCN(C(=O)N(C)C)c1ccccc1 .
Result: > 100 µM (inactive)

Ask: Write down the reported GI50 (system: RXF 393) of N/N=C1\C(=O)N(C2CCCCCC2)C(=O)C1C(=O)NC1CCCCCC1 (stereo not given)
Result: 40 µM (inactive)

Ask: Fill in GI50 for Oc1c(NCn2nc(CCCCCCCCc3nn(CNc4ccc5ccccc5c4O)c(=S)o3)oc2=S)ccc2ccccc12 tested with RXF 393.
Result: 30.1 µM (inactive)

Ask: Report GI50 under test system RXF 393 for CC[N+]1(C)CCC(O)(c2ccc(Cl)c(Cl)c2)C(C(=O)c2ccc(Cl)c(Cl)c2)C1 (stereo not given) .
Result: > 10 µM (inactive)

Ask: Tell me its GI50 on RXF 393: COC(=O)C(Cc1c[nH]c2ccccc12)NC(=O)c1ccc(-c2ccc(Cl)cc2Cl)o1 (stereo not given)
Result: 28.5 µM (inactive)

Ask: Provide RXF 393 GI50 reading for CC(NC(=O)/C(C#N)=C/c1ccc2[nH]ccc2c1)c1ccccc1 (stereo not given) .
Result: 19.3 µM (inactive)

Ask: # lookup: RXF 393 GI50, key = COc1ccc(C2C(N)=NCC2c2ccccn2)cc1 (stereo not given)
Result: > 100 µM (inactive)

* * *

observation_type: log10(GI50) (log10 of the value in µM)
Lab note - GI50 converted to log10 from values in µM.

Ask: Send back HCT-15 log10(GI50) of C=C1CC(c2ccc(OCCCN3C(=O)c4ccccc4C3=O)c(OC)c2)OC1=O (stereo not given) only.
Result: 0.43

Ask: Find the measured log10(GI50) of C[n+]1c(-c2ccc(/C=N\N3CCN(/N=C/c4ccc(-c5cn6ccccc6[n+]5C)cc4)CC3)cc2)cn2ccccc21 with HCT-15 as test system.
Result: 1.95

Ask: Answer briefly: log10(GI50) recorded on HCT-15 for CCC12C=CCN3CCC4(C(=C(C(=O)OC)[C@@H]1O)Nc1ccccc14)C32 (stereo not given in full)
Result: 0.20

Ask: Return reported log10(GI50) for target or system HCT-15, item Cc1nc(Nc2nc3ccccc3[nH]2)[nH]c(=O)c1CCO .
Result: 1.79

Ask: Tell me its log10(GI50) on HCT-15: COc1ccc(C2c3c(-c4ccccc4)nn(-c4ccccc4)c3Oc3ncn(N)c(=N)c32)cc1OC (stereo not given)
Result: 0.26

Ask: Specify log10(GI50) for CN(C)CCOc1ccc(-c2c(Oc3ccccc3)c(=O)oc3ccccc23)cc1 , system HCT-15.
Result: 1.01

Ask: Enter log10(GI50) (test system HCT-15) for C/C(N)=[N+](/C)[O-]
Result: 1.30

Ask: Write down the reported log10(GI50) (system: HCT-15) of CSC1=NN(c2ccccc2)C(=O)C1=C(SC)SC
Result: 1.30

Ask: Look up and report measured log10(GI50) (HCT-15) for the following compound: Clc1ccc(CCc2ccncn2)c(Cl)c1
Result: 1.90

Ask: Give log10(GI50) for CCn1cc(C(c2ccc(Cl)cc2)n2ccnc2)c2cc(Br)ccc21 (stereo not given) tested on HCT-15.
Result: 1.09

Ask: Report value only: log10(GI50), HCT-15, O=C1c2cccc([N+](=O)[O-])c2C(=O)c2nccnc21
Result: 0.17

Ask: Look up HCT-15 data: log10(GI50) of CN(C)c1cccc(F)c1C(=O)NC(=O)Nc1ccc(Cl)cc1 , then report it.
Result: -0.24

Ask: Send back HCT-15 log10(GI50) of N#C/N=C(/NCc1ccccc1)N(Cc1ccccc1)Cc1ccccc1 only.
Result: 1.32

Ask: System HCT-15. Read-out log10(GI50). Item CCCCCCCCCC(=O)NC(CCC(=O)N(CCNC(=O)c1nc(-c2ccccc2)oc1-c1ccccc1)Cc1ccccc1)C(=O)O (stereo not given) . Report value.
Result: 1.20

Ask: State the measured log10(GI50) (HCT-15) of CCN(CC)C(c1ccc(N(C)C)cc1)C(c1ccc(N(C)C)cc1)N(CC)CC (stereo not given)
Result: 1.48

Ask: State the measured log10(GI50) (HCT-15) of Oc1nc(-c2ccccc2)cc(-c2ccccc2O)n1
Result: 1.92

Ask: Find the measured log10(GI50) of Cn1c2c3c(F)c(F)ccc3nc-2cc2ccccc21 with HCT-15 as test system.
Result: 0.17

Ask: Fetch value of log10(GI50) on HCT-15 for CCN(CC)c1c(N(CC)CC)c(=O)c1=O .
Result: 0.56

Ask: Enter recorded log10(GI50) with HCT-15 for C=Cc1cc2c(cc1O)CC[C@@H]1[C@@H]2CC[C@]2(C)[C@@H](O)CC[C@@H]12 here.
Result: 0.60

Ask: // fetch log10(GI50); item: O=C(O)c1nc2cc(C(F)(F)F)ccc2nc1Nc1ccc(Cl)c(Cl)c1 ; system: HCT-15
Result: 1.09

Ask: Give log10(GI50) for CC(=O)Oc1c2ccsc2c(OC(C)=O)c2ccsc12 tested on HCT-15.
Result: -0.24

Ask: Specify log10(GI50) for CCNC(=S)NNC(=O)c1csc(NC(=S)NC2CCCCC2)n1 , system HCT-15.
Result: 0.22

Ask: Identify measured log10(GI50) obtained with HCT-15 for CC1=CCC[C@@](C)(O)[C@@H]2C[C@H]3C(CSc4ccccc4)C(=O)O[C@H]3[C@@H](O2)[C@H](C)CCC1 (stereo not given in full) .
Result: 1.28

* * *

# Tested on: OVCAR-4
# assay_remarks: NCI tumour cell line growth inhibition, 48 h
Active and inactive are the calls of the source. Rule as the data show it: active = GI50 up to about 1.1 µM and inactive = higher.
observation_type: GI50

Ask: Check the records and state GI50 for COC1C=C(NCC2(CO)CCC2)N=C(N)N1 (stereo not given)
Result: > 100 µM (inactive)

Ask: Give GI50 for the following compound: Cc1[nH]c(=O)[nH]c(=O)c1/C=C/C(=O)NC(CO)C[S+]([O-])C[S+](C)[O-] (stereo not given)
Result: 2.17 µM (inactive)

Ask: Output GI50 of COC1=CC(=O)C2[C@H]3Cc4ccccc4[C@H]3C2(C)C1=O (stereo not given in full)
Result: > 100 µM (inactive)

Ask: Name the recorded GI50 of the compound listed here: CN(CCC(=O)O)C1=Nc2ccc(Cl)cc2C(c2ccccc2)=[N+]([O-])C1
Result: 72.1 µM (inactive)

Ask: # return recorded GI50 for input CC(=O)N(/N=C\c1ccc([N+](=O)[O-])cc1)c1ccccc1
Result: > 100 µM (inactive)

* * *

# System: EKVX
# assay_remarks: NCI tumour cell line growth inhibition, 48 h
Activity calls are given as the source filed them. No stated cut-off is given here; in the data, active = GI50 up to about 1.1 µM and inactive = higher.
Give GI50 for every item shown.

Ask: Fill in GI50 for record CN(CCCNC(=O)c1nn(C)c2c1Cc1ccccc1-2)CCCNC(=O)c1nn(C)c2c1Cc1ccccc1-2
Result: 19.2 µM (inactive)

Ask: Entry CC(C)(C)c1ccc(OCCOCCOc2ccc(C(C)(C)C)cc2S(=O)(=O)Nc2ccc([N+](=O)[O-])cc2)c(S(=O)(=O)Nc2ccc([N+](=O)[O-])cc2)c1 needs its GI50 filled in; supply it.
Result: 62.5 µM (inactive)

Ask: Write down GI50 measured for item O=C(c1ccccc1)c1ccc(-n2c3ccccc3c3ccc4c(c32)C(=O)C=CC4=O)cc1
Result: 11 µM (inactive)

Ask: Note GI50 for the compound shown: C=C1CC(c2ccc(OCCCN3C(=O)c4ccccc4C3=O)c(OC)c2)OC1=O (centres undefined)
Result: 11 µM (inactive)

* * *

# Test system: SNB-19
# assay_remarks: NCI tumour cell line growth inhibition, 48 h
Calls of active or inactive are those of the source. Rule as the data show it: active = GI50 up to about 1.1 µM and inactive = higher.
Please answer using one outcome listed in Yes = active, No = inactive

Ask: What call does the record list for CO/N=C(/C(=O)OC)c1ccccc1COc1ccccc1C(F)(F)F ?
Result: No

Ask: Can you look up the reported call for CCC1=CCC(P(=O)(c2ccccc2)c2ccccc2)CC1C (stereo not given) for me?
Result: No

Ask: Identify the outcome logged in this assay for the compound shown: Cc1ccc([N+](=O)[O-])c2c(NCCC[N+](C)(C)[O-])c3ccccc3nc12
Result: No

Ask: Outcome logged for c1ccc(-c2nc(-c3ccccc3SSc3ccccc3-c3nc(-c4ccccc4)nn3-c3ccccc3)n(-c3ccccc3)n2)cc1 in this assay:
Result: No

Ask: Hello, I am checking results. What call was entered for CCCOC(=O)c1cc(O)c(O)c(O)c1 [PROPYL GALLATE] ?
Result: No

Ask: Which outcome did this test record for the compound CCOC(=O)C1=C(C)N(c2ccc(C)cc2)C2(O)C=CC(O)=C3C(=O)c4ccccc4C(=O)C312 (stereo not given) ?
Result: No

Ask: Please let me know the test result on file for Cc1c[nH]c2c1C13CC1CN(C(=O)c1cc4cc(NC(=O)c5cc6ccccc6o5)ccc4[nH]1)C3=CC2=O (stereo not given) .
Result: Yes

Ask: # lookup: test call for O=C1/C=C(/c2ccc(O)cc2)[C@@H](O)Cc2ccc(O)cc2O1
Result: No

Ask: GET /call?item= COc1ccc(NC(=S)NNC(=O)c2cc(-c3ccccc3)nc3ccccc23)cc1 returns the recorded outcome of this test.
Result: No

Ask: Identify the outcome logged in this assay for the compound shown: NC(N)=NCCC(O)(P(=O)(O)O)P(=O)(O)O
Result: No

Ask: // return assay outcome for c1ccc2c(c1)[n-]n1c3ccc4nonc4c3n[n+]21
Result: No

Ask: Tell me the assay call for Nc1nc(N)c(CCCCc2ccccc2)c(N)n1 please.
Result: No

Ask: Check the results log: what was the call for Cn1c2c3ccccc3nc-2c(O)c2ccccc21 [HYDROXYCRYPTOLEPINE] ?
Result: No

Ask: Would you mind telling me which call this test gave C=CCN1CN(c2ccccc2)C2(CCN(CCCC3(c4ccc(F)cc4)OCCO3)CC2)C1=O ?
Result: No

Ask: Returns: the outcome recorded for CCC12C=CCN3CCC4(C(=C(C(=O)OC)[C@@H]1O)Nc1ccccc14)C32 (stereo not given in full) in this assay.
Result: No

Ask: Please let me know the test result on file for Nc1ccc2nc3c(nc2c1)C(=O)c1ccccc1-3 .
Result: No

Ask: How did this test come out for Cc1c(N2C(=O)CS(=O)(=O)C2c2cccc(Oc3ccccc3)c2)c(=O)n(-c2ccccc2)n1C (stereo not given) ?
Result: No

Ask: Which outcome was entered for the compound CCCOc1ccc(/C=C\c2cc(OC)c(OC)c(OC)c2)cc1 in this test?
Result: No

Ask: Field: outcome | Entry: O=C1CN(C(=O)c2ccccc2)Cc2[nH]c3ccccc3c21
Result: No

Ask: Test call for this compound, please: O=c1cc(/C=C/c2ccc(O)c(O)c2)cc(/C=C/c2ccc(O)c(O)c2)o1
Result: No

Ask: For CCOC(=O)CCC(NC(=O)Cc1ccc(Oc2nc3ccccc3nc2-c2cccs2)cc1)C(=O)OCC (stereo not given) , which call appears in the assay record?
Result: No

Ask: Status in this test for CS(=O)(=O)OC1CCN(C2(c3cccc(O)c3)CCCCC2)CC1 ?
Result: No

Ask: Tell me the recorded outcome of this test for CO[C@H]1O[C@@H]2CO[C@@H](c3ccccc3)O[C@H]2C[C@]12CCC/C=C\CO2 .
Result: No

Ask: Please let me know the test result on file for c1cncc(C2N3CCCCC3[C@@H]3c4[nH]c5ccccc5c4CCN23)c1 (stereo not given in full) .
Result: No

Ask: Hi, do you know how NC(=O)C1CCN(Cc2c(Cl)c(Cl)c(CN3CCC(C(N)=O)CC3)c(Cl)c2Cl)CC1 came out in this test?
Result: No

Ask: Call for entry C=Cc1cc2c(cc1O)CC[C@@H]1[C@@H]2CC[C@]2(C)[C@@H](O)CC[C@@H]12 :
Result: No

Ask: Tell me the assay call for CCCN(CCC)c1c([N+](=O)[O-])cc(S(N)(=O)=O)cc1[N+](=O)[O-] please.
Result: No

Ask: What was the test verdict on CC(=O)OCSc1ncnc2c1ncn2CN1CCOCC1 ?
Result: No

Ask: What classification did C/C=C1\NC(=O)[C@H]2CSSCCC=C[C@H](CC(=O)N[C@H](C(C)C)C(=O)N2)OC(=O)[C@H](C(C)C)NC1=O end up with in this test?
Result: Yes

Ask: Hey, what did the test say about COC1=CC(=O)c2c(cc(COP(=O)(OCC3OC(n4cc(F)c(=O)[nH]c4=O)CC3O)N(C)CCCCCl)n2C)C1=O (stereo not given) ?
Result: Yes

Ask: Please state the recorded outcome for this compound: CC[N+]1(C)CCC(O)(c2ccc(Cl)c(Cl)c2)C(C(=O)c2ccc(Cl)c(Cl)c2)C1 (stereo not given)
Result: No

Ask: What call does the record list for O/N=N/c1ccc(Sc2ccc(/N=N/O)cn2)nc1 ?
Result: No

Ask: Would you mind telling me which call this test gave O=c1c(C(c2ccc3c(c2)Cc2ccccc2-3)c2c(O)oc3ccccc3c2=O)c(O)oc2ccccc12 ?
Result: No

Ask: Give the logged outcome of this assay for the following compound: O=c1cnn(CCOCP(=O)(O)O)c(=O)[nH]1
Result: No

Ask: Which outcome was entered for the compound Oc1c(-c2ccccc2)sc2ccccc12 in this test?
Result: No

Ask: Assay result, entry CCOC(=O)c1cc(-c2ccc(OC)cc2)c([N+](=O)[O-])n1C — outcome?
Result: No

Ask: Record request — test call for Nc1nc(F)nc2c1ncn2C1OC(CO)C(O)C1O (stereo not given)
Result: No

Ask: Check the results log: what was the call for OC1(C(Sc2ccccc2)Sc2ccccc2)CCCCCC1 ?
Result: No

Ask: What call does the record list for Oc1c(NCn2nc(CCCCCCCCc3nn(CNc4ccc5ccccc5c4O)c(=S)o3)oc2=S)ccc2ccccc12 ?
Result: No

Ask: What call does the record list for O=C(O)c1nc2cc(C(F)(F)F)ccc2nc1Nc1ccc(Cl)c(Cl)c1 ?
Result: No
